Listing of entries alongside the reported DR/DR AA.
runDescription: Probe fluorescence ratio response to arachidonic acid relative to ADIFAB2
Format: binding
testConditions: arachidonic acid; response relative to ADIFAB2
Description: In an alternate preferred embodiment, the protein is rI-FABP that has Ala substituted for Leu at position 72 (rI-FABP-L72A) with the resulting probe named ADIFAB2. […] ADIFAB2 also has an altered spectral response, making it especially useful for measurements of FFAu in blood samples (Apple et al, Clinical Proteomics, (2004) 1:41-44, U.S. patent application Ser. No. 10/670,958). […] The baseline value for this ratio, measured in the absence of analyte, is designated R0. […]
outcomeMeasure: DR/DR AA

1) 106Q, 72A (protein, listed as Rattus norvegicus, PEPTIDE (1)...(131) wild-type rat intestinal fatty acid binding protein) AFDGTWKVDRNENYEKFMEKMGINVVKRKLGAHDNLKLTITQEGNKFTVKESSNFRNIDVVFELGVDFAYSAADGTELTGTWTMEGNKLVGKFKRVDNGKELIAVQEISGNELIQTYTYEGVEAKRIFKKE: 0.37
2) 104F, 72A (protein, listed as Rattus norvegicus, PEPTIDE (1)...(131) wild-type rat intestinal fatty acid binding protein) AFDGTWKVDRNENYEKFMEKMGINVVKRKLGAHDNLKLTITQEGNKFTVKESSNFRNIDVVFELGVDFAYSAADGTELTGTWTMEGNKLVGKFKRVDNGKELIFVREISGNELIQTYTYEGVEAKRIFKKE: 0.686

Reference source for all entries: patent US20060257938A1
